experiment: Single oral dose pharmacokinetic study in mice; assay type: in vivo, mouse; details: female, BALB/c, mouse, plasma, po, 50 mg/kg, single oral gavage
recorded metric: Tmax (h)
Expressed in h, but write only the number.

Endpoint output: Tmax of Cc1ccc(-c2nc3ccccc3s2)cc1NC(=O)c1cc([N+](=O)[O-])c(N2CCN(C)CC2)cc1Cl [Compound 5] . Value? 4

* * *

assay: in vitro; details: rat, microsomes, pH 7.4
recorded metric: half-life at 20 μM

Endpoint output: half-life at 20 μM of NC(=O)N1c2ccccc2C=Cc2ccccc21 [carbamazepine] . Value? > 4 h

* * *

test: Caco-2 permeability assay; format: in vitro ADME; details: human, Caco-2; pH 7.4; mean ± standard deviation of three runs; read-out: Caco-2 (A→B) permeability coefficient
recorded metric: Papp A→B at 2 h, 10 μmol/L
Just the number plus its unit, please.

Endpoint output: Papp A→B at 2 h, 10 μmol/L of Cc1ccc(-c2nc3ccccc3s2)cc1NC(=O)c1cc([N+](=O)[O-])c(N2CCN(C)CC2)cc1Cl . Value? 16.8 ×10⁻⁶ cm/s

Endpoint output: Papp A→B at 2 h, 10 μmol/L of NC(=O)N1c2ccccc2C=Cc2ccccc21 [carbamazepine] . Value? 71.8 ×10⁻⁶ cm/s

Endpoint output: Papp A→B at 2 h, 10 μmol/L of C[C@H]1O[C@@H](O[C@H]2[C@@H](O)C[C@H](O[C@H]3[C@@H](O)C[C@H](O[C@H]4CC[C@@]5(C)[C@H](CC[C@@H]6[C@@H]5C[C@@H](O)[C@]5(C)[C@@H](C7=CC(=O)OC7)CC[C@]65O)C4)O[C@@H]3C)O[C@@H]2C)C[C@H](O)[C@@H]1O . Value? 4.61 ×10⁻⁶ cm/s

Endpoint output: Papp A→B at 2 h, 10 μmol/L of COc1ccc(-c2c(C(F)(F)F)oc3c(CN4CCN(C)CC4)c(O)ccc3c2=O)cc1OC . Value? 49 ×10⁻⁶ cm/s

* * *

assay: Single oral dose pharmacokinetic study in mice; format: in vivo, mouse; details: female, BALB/c, mouse, single oral gavage, 50 mg/kg, plasma
recorded metric: AUC (µM·h)
Expressed in µM·h, but write only the number.

Endpoint output: AUC of Cc1ccc(-c2nc3ccccc3s2)cc1NC(=O)c1cc([N+](=O)[O-])c(N2CCN(C)CC2)cc1Cl [Compound 5] . Value? 83.2
